Biological target: active mouse DPP1 enzyme (Mus musculus)
Construct: Each subunit is composed of an N-terminal fragment, a heavy chain and a light chain; purchased R&D Systems
Sequence (P97821 25-134 limits assumed): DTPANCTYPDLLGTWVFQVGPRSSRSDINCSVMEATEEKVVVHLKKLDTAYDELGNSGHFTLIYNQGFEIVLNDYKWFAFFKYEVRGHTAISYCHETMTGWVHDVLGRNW
Sequence (P97821 231-393 limits assumed): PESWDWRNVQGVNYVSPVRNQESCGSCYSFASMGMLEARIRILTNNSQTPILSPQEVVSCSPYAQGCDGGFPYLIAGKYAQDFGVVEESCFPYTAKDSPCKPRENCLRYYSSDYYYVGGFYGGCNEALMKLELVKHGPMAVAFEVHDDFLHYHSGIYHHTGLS
Sequence (P97821 394-462 limits assumed): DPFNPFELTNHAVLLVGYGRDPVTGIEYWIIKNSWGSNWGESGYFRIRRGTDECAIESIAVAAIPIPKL
Assay: Mouse DPP1 Enzyme IC50 Assay
Format: biochemical
resultType: IC50

1) N#C[C@H](Cc1cc2c(cc1F)-c1cc(C3COC3)c(F)cc1CO2)NC(=O)[C@@H]1CNCCCO1 [Compound B2] :: 5 to 20 nM

----------
IC50: recorded values
Target: human DPP1 enzyme (Homo sapiens)
Sequence (P53634 25-134 limits assumed): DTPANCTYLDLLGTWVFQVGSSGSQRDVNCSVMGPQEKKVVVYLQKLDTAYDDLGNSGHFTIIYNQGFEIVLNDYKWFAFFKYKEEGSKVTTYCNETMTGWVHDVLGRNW
Sequence (P53634 231-394 limits assumed): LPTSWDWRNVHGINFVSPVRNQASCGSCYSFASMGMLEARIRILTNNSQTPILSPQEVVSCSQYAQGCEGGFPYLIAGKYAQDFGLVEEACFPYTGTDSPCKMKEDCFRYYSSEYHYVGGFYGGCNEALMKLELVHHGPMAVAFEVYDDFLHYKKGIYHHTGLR
Sequence (P53634 395-463 limits assumed): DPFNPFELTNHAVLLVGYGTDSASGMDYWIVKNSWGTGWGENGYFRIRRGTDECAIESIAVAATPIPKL
Assay: Human DPP1 Enzyme IC50 Assay
Format: biochemical
Set-up: was first proteolytically processed into its mature form using recombinant human cathepsin L; purchased R&D Systems
Settings: activated recombinant human DPP1, 400 μM H-Gly-Arg-AMC, 10 minutes pre-incubation at 37° C., pH 6.0; average of n runs; read-out: Avg. IC50 (Human DPP1 enzyme IC50 value ranges)
resultType: IC50

1) N#C[C@H](Cc1ccc(-c2ccc3c(c2)C2(CCN(C4CC4)CC2)SCC3)cc1)NC(=O)[C@@H]1CNCCCO1 [Compound I7] :: > 15 nM
2) C[C@@H]1NC[C@@H](C(=O)N[C@H](C#N)Cc2ccc(-c3ccc4c(c3)CCC(=O)N4C)cc2)OC[C@@H]1O [Compound A148] :: > 15 nM
3) Cc1cc2cc(-c3ccc(C[C@@H](C#N)NC(=O)[C@@H]4CNCCCO4)cc3)cn2c(C)n1 [Compound A57] :: > 15 nM
4) CO[C@H]1CCO[C@H](C(=O)N[C@H](C#N)Cc2ccc(-c3ccc(C#N)cc3)cc2)CNC1 [Compound F1] :: > 15 nM
5) N#C[C@H](Cc1ccc(-c2cnc3[nH]ccc3n2)cc1)NC(=O)[C@@H]1CNCCCO1 [Compound A16] :: > 15 nM
6) N#CC(Cc1cc2c(cc1F)-c1cc(C3COC3)c(F)cc1CO2)NC(=O)[C@@H]1CNCCCCO1 (mixture of isomers) [Compound B10] :: 5 to 15 nM
7) CO[C@H]1CCO[C@H](C(=O)NC(C#N)Cc2cc3c(cc2F)-c2cc(C4COC4)c(F)cc2CO3)CNC1 (mixture of isomers) [Compound B15] :: < 5 nM
8) COC1CNC[C@@H](C(=O)N[C@H](C#N)Cc2ccc(-c3ccc4nnn(C)c4c3)cc2)OC1 (single isomer, unassigned) [Compound H12-A] :: > 15 nM
9) CO[C@H]1CCO[C@H](C(=O)N[C@H](C#N)Cc2ccc(-c3cc4c(C)nc(C)cn4c3)cc2F)CNC1 [Compound A48] :: 5 to 15 nM
10) N#C[C@H](Cc1ccc(-c2cc3ccncc3[nH]2)cc1)NC(=O)[C@@H]1CNCCCO1 [Compound A7] :: > 15 nM
11) CCCCOCCn1c(=O)oc2ccc(-c3ccc(C[C@@H](C#N)NC(=O)[C@@H]4CNC[C@@H](OC)CCO4)cc3)cc21 [Compound F2] :: > 15 nM
12) N#C[C@H](Cc1ccc(-c2ccc3c(c2)[C@@]2(CCCN(C4CC4)C2)COC3)cc1)NC(=O)[C@@H]1CNCCCO1 [Compound I12] :: 5 to 15 nM
13) COC1CNC[C@@H](C(=O)N[C@H](C#N)Cc2ccc(-c3ccc4c(F)nn(C)c4c3)cc2F)OC1 (some centres unmarked) [Compound A164] :: < 5 nM
14) N#C[C@H](Cc1ccc(-c2ccc3c(c2)C[C@]2(CCN(c4nccs4)C2)OC3)cc1)NC(=O)[C@@H]1CNCCCO1 [Compound I14] :: > 15 nM
